target: wt HIV-1 RT-associated RNase H (Human immunodeficiency virus type 1 group M subtype B, UniProt P04585)
Construct: dynamics at the p66/p51 HIV-1 RT-RNase H dimer interface; made in house
experiment: RNase H inhibitor analysis, wild type RT (fluorescent RNA/DNA hybrid)
Type: biochemical
condition.info: wild type RT
Procedure: All assays were performed in triplicate.

# structure, units.text, value.prefix, IC50
data = [
    ("O=c1[nH]c(-c2ccc(O)c(O)c2)nc2c1oc1ccccc12", "µM", "=", 0.64),
    ("O=c1[nH]c(-c2ccc(O)c(O)c2)nc2ncccc12", "µM", "=", 2.4),
    ("O=c1[nH]c(-c2ccc(O)c(O)c2)nc2ccc(I)cc12", "µM", "=", 0.15),
    ("Oc1ccc(-c2ccc3ccccc3n2)cc1O", "µM", "=", 2.9),
    ("Nc1ccc(-c2nc3ccccc3c(=O)[nH]2)cc1O", "µM", ">", 50),
    ("Nc1ccc(-c2nc3ccccc3c(=O)[nH]2)cc1N", "µM", ">", 50),
]
